experiment: P. aeruginosa biofilm formation inhibitors, primary screen, PAO1 strain, BacTiter-Glo luminescence, LB-PBS (AID 1144); conditions: 12 h, higher = more signal
Please respond with reported z-score for every item in the list.
Number, no unit, nothing else.

# input compound: C[C@@H]1NC(=O)[C@@]23C(=O)N[C@@H](Cc4ccccc4)C2[C@H](C)[C@@]2(C)O[C@H]2C3/C=C/C/C=C\CNC(=O)[C@@H]2CCCN2C1=O (stereo partly drawn) ; wanted: its z-score -0.426

Value lookup for z-score; key = C=CCOC(=O)[C@H]1[C@@H]2C(=O)O[C@@H](c3ccccc3)[C@@H](c3ccccc3)N2[C@@H](c2ccc(OCCOC(=O)[C@H]3C[C@H]4C(=O)N[C@@H](CCCCNC(C)=O)C(=O)N4[C@H]3c3ccc(O)cc3)cc2)[C@]12C(=O)Nc1ccccc12 -1.57

// query z-score value for entry CCOC(=O)C[C@H]1[C@H](OC(=O)c2cc3ccccc3oc2=O)[C@@H](NC(=O)c2ccc(-c3ccccc3)cc2)c2cc(OCCCO)ccc2N1C(=O)c1ccccc1 1.02
